ASSAY SYSTEM: SARS-CoV-2 WT spike on rVSV-deltaG-Luc pseudovirus (SARS-CoV-2), P0DTC2
PROCEDURE DETAILS: cell-based or functional assay
QUANTITY KIND: pseudovirus neutralization IC50 (nM)
Dear colleague, please return just the value in nM, with no unit written.

[
  {
    "BINDER": "19C10 VHH-Fc (Fc fusion) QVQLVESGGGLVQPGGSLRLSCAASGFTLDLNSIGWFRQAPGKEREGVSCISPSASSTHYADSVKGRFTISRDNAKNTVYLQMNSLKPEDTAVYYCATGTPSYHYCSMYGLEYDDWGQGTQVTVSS",
    "MEASURED NUMBER": 1.49
  }
]

We next turn to a different binder, shown below.
## Task Complete the entry with pseudovirus neutralization IC50 for 8E9 VHH-Fc (Fc fusion) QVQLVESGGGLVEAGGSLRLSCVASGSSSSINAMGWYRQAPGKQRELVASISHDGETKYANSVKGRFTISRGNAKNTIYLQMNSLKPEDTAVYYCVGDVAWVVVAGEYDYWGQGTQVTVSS
## Result 12.4

Values were extracted from patent US20250382355A1.
